system-name: T1, Human CD137 shuffle 5 (amino acids 48-88 replaced by African elephant CD137) (human, amino acids 48-88 from African …, UniProt Q07011 24-255)
T1 construct: also called shuffle construct 5
T1 chain: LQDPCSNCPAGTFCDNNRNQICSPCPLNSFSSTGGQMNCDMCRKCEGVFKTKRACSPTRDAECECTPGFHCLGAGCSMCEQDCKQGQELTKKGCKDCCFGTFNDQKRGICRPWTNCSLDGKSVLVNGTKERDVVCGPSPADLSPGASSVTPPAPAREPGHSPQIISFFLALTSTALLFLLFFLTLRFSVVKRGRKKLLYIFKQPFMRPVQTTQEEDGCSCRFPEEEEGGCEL
protocol-text: flow cytometry on transfected HEK293T-17 cells, 1 µg/mL antibody
quantity-name: binding result

Measured binding result, CD137 antibody clone 001 (rabbit) (antibody, human IgG1, kappa, V domains shown, also called Clone 1; CD137 clone 001) VH: QSVEESGGRLVTPGTPLTLTCTVSGFSLSSYAVSWVRQAPGKGLEWIGVIWNNGATHYATWAKGRFTISKASTTVDLKVTSPTTEDTATYFCARSANDAWSTYSDLWGQGTLVTVSS VL: DIVMTQTPASVEAAVGGTVTIKCQASQTITNYLSWYQQKPGQPPKLLIYKASTLTSGVSSRFKGSGSGTEFTLTISDLESDDAATYYCQNYYYGSSSGYGFVFGGGTEVVVKR : binds

Looking up CD137 antibody clone 012 (rabbit) (antibody, human IgG1, kappa, V domains shown, also called Clone 12; CD137 clone 012) VH: QSVEESGGRLVTPGTPLTLTCTVSGFSLSDYYMTWVRQAPGKGLEYIGIMSGSGSTYYASWAKGRFTISKTSSTTLELKITSPTTEDTAIYFCARDGDYAGWGYATGAFDPWGPGTLVTVSS VL: AAVLTQTPSPVSAAVGGTVTISCQASQSVVGNSLLSWFQKKPGQPPKLLIYSASSLASGVPSRFKGSGSGTQFTLTISDLESDDAATYYCTGRYNSDTDTFVFGGGTEVVVKR , I found its binding result recorded as binds
